Test: Inhibition of bovine tubulin assembly after 1 hr by fluorescence assay
Parameters: species or system Bos taurus
Entries and their measured IC50 follow.
Return type: number; implicit unit µM.

// query State, in one line, measured IC50 of COc1cc(/C=C/[N+](=O)[O-])c(/C=C/c2ccc3c(c2)OCO3)c(OC)c1OC
// result 8.02

// query Answer with the recorded IC50 of COc1ccc(/C=C/c2c(/C=C/[N+](=O)[O-])cc(OC)c(OC)c2OC)cc1 only.
// result 4.9

// query Return the recorded IC50 value; entry: COc1cc(/C=C/[N+](=O)[O-])c(/C=C/c2ccc(C)cc2)c(OC)c1OC
// result 4.27

// query Specify reported IC50 for the compound shown: COc1cc2c(c(OC)c1OC)-c1ccc(OC)c(=O)cc1[C@@H](NC(C)=O)CC2
// result 1.96

* * *

System: HeLa
Assay: Antiproliferative activity against human HeLa cells assessed as cell viability after 48 hrs by SRB assay
Format: functional, cell-based
Settings: Homo sapiens, HeLa, 48 h
Entries and their pIC50 values follow.
Please express pIC50 as -log10 of the molar concentration.

// query Please look at this molecule and report its pIC50: COc1cc(/C=C/[N+](=O)[O-])c(/C=C/c2ccc(F)cc2)c(OC)c1OC
// result 4.91

Others:
// query Give the measured pIC50 for COc1ccc(/C=C/c2c(/C=C/[N+](=O)[O-])cc(OC)c(OC)c2OC)cc1
// result 5.11

// query Output pIC50 of COc1cc(/C=C/c2c(/C=C/[N+](=O)[O-])cc(OC)c(OC)c2OC)cc(OC)c1
// result 5.00
